Reference for the values: patent US11964971B2

- System: MDR1
- EXPERIMENT DESCRIPTION: in vitro
- CONDITION SET: dog, MDCK-MDR1, pH 7.4, MDCK-MDR1: Papp B-A (10^−6, cm/s)
Assign Y to entries whose Papp B→A at 120 min, 5 μM meets or exceeds 20 ×10⁻⁶ cm/s; assign N to the rest.

Worked cases, answers included:
COMPOUND	TARGET OF ASSAY	CLASS
COc1cc(-c2cc(O)c(-c3cnc(N(C)[C@H]4C[C@@H]5CCC(N5)[C@H]4F)cn3)cc2F)ccn1 (single isomer, unassigned)	MDR1	N
CN(c1cnc(-c2ccc(-c3cn[nH]c3)cc2O)cn1)[C@H]1CC2N[C@@H](C1)CC2(F)F (single isomer, unassigned)	MDR1	Y

In: API: above_or_equal(metric=Papp B→A at 120 min, 5 μM, cutoff=20 ×10⁻⁶ cm/s) for item CN(c1cnc(-c2cc(F)c(-c3cnn(CF)c3)cc2O)cn1)[C@H]1C[C@@H]2CCC(N2)[C@H]1F (single isomer, unassigned)
Out: N

In: In plain terms: is recorded Papp B→A at 120 min, 5 μM at least 20 ×10⁻⁶ cm/s for CN(c1cnc(-c2ccc(-c3ccn(C)c(=O)c3)cc2O)cn1)[C@@H]1CC2CCC[C@H](N2)[C@@H]1F (single isomer, unassigned) ?
Out: Y

In: API: above_or_equal(metric=Papp B→A at 120 min, 5 μM, cutoff=20 ×10⁻⁶ cm/s) for item CN(c1cnc(-c2ccc(C3=CCOC3)cc2O)cn1)[C@@H]1CC2CC[C@H](N2)[C@@H]1F (single isomer, unassigned)
Out: N

----------
- System: MDR1
- EXPERIMENT DESCRIPTION: in vitro
- CONDITION SET: dog, MDCK-MDR1, pH 7.4, MDCK-MDR1: Papp B-A (10^−6, cm/s)
Use MET when the recorded Papp B→A at 120 min, 5 μM is no lower than 30 ×10⁻⁶ cm/s; use NOT MET when it is lower.

In: Can COc1cc(-c2ccc(-c3cnc(N(C)[C@@H]4CC5COC[C@H](N5)[C@@H]4F)cn3)c(O)c2)cnn1 (single isomer, unassigned) be said to have Papp B→A at 120 min, 5 μM at or above 30 ×10⁻⁶ cm/s?
Out: MET

In: Identify whether the reported Papp B→A at 120 min, 5 μM of the following molecule is 30 ×10⁻⁶ cm/s or greater: `CN(c1cnc(-c2ccc(-c3cn[nH]c3)cc2O)cn1)[C@H]1C[C@]2(C)CCC[C@@](C)(N2)[C@H]1F`
Out: NOT MET

In: Is Papp B→A at 120 min, 5 μM at least 30 ×10⁻⁶ cm/s? Consider CN(c1cnc(-c2ccc(-c3nnco3)cc2O)cn1)[C@@H]1CC2CC[C@H](N2)[C@@H]1F (single isomer, unassigned)
Out: NOT MET

In: For this molecule, is measured Papp B→A at 120 min, 5 μM 30 ×10⁻⁶ cm/s or higher? CN(c1cnc(-c2ccc(-c3cn[nH]c3)cc2O)cn1)[C@@H]1C[C@H]2CCC(N2)[C@@H]1F (single isomer, unassigned)
Out: MET

In: hey, is Papp B→A at 120 min, 5 μM for this one >= 30 ×10⁻⁶ cm/s? `CN(c1cnc(-c2ccc(-c3cc[nH]c(=O)c3)cc2O)cn1)[C@H]1C[C@@H]2CC[C@@H](N2)[C@H]1F`
Out: NOT MET
